B1: glmS ribozyme (parent)
chain: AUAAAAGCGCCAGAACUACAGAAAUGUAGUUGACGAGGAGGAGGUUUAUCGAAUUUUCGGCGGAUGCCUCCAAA

# Variants of: B1
# experimental-details: self-cleavage kobs at 160 uM GlcN6P; higher = faster cleavage; RNA array
# protocol-conditions: with glucosamine-6-phosphate
This sample holds only a part of the variants without activity.
measured-parameter: self-cleavage kobs at 160 uM GlcN6P

>>> df
                    mutation_list  experimental_value
 0                      A14C G60C         < 1e-05 s⁻¹
 1                       A6U G43A         < 1e-05 s⁻¹
 2                      G38C G43A         < 1e-05 s⁻¹
 3                      A39C A64G        0.000342 s⁻¹
 4                 C34A A64C C68U         < 1e-05 s⁻¹
 5            C16G A42G A53G C67G        0.000151 s⁻¹
 6                      G35A G43U         < 1e-05 s⁻¹
 7                       G9U U31G         < 1e-05 s⁻¹
 8       U30G U31G C50A A52U G62U         < 1e-05 s⁻¹
 9                 G41U U45C G59U         < 1e-05 s⁻¹
10                       C8G C50G        0.000106 s⁻¹
11                      G35C C61G         < 1e-05 s⁻¹
12                      U56G C71G         0.00014 s⁻¹
13            G51U A53U C58A C70A        8.95e-05 s⁻¹
14                      A52G C67G        7.15e-05 s⁻¹
15                      C11A C58A         < 1e-05 s⁻¹
16                 A14U G21A U56G         0.00134 s⁻¹
17                 G29A A53U C67A        7.84e-05 s⁻¹
18                       G9A C67A         < 1e-05 s⁻¹
19   G9C G37A U46A A52U G60A C61A         < 1e-05 s⁻¹
20                 U31G A33U G38U         < 1e-05 s⁻¹
21  A12U G13U A48U G51C U54G C71U         < 1e-05 s⁻¹
22                      A36G G59U         < 1e-05 s⁻¹
23                      A15G G38C         < 1e-05 s⁻¹
24                      G51C U56C         < 1e-05 s⁻¹
25                      G35A G62U         < 1e-05 s⁻¹
26                      A33G G41U         < 1e-05 s⁻¹
27                 U30G U57C G62C         < 1e-05 s⁻¹
28                  G9C U46G C67G         < 1e-05 s⁻¹
29                      A33G G41A         < 1e-05 s⁻¹
30                      A36U U57G         < 1e-05 s⁻¹
31                      A53U C70U         0.00102 s⁻¹
32                      U31G G35C         < 1e-05 s⁻¹
33                      G35U A36C         < 1e-05 s⁻¹
34                      A52C G62C         < 1e-05 s⁻¹
35                 U31C U56G G60C         < 1e-05 s⁻¹
36                      A48U U55A        4.63e-05 s⁻¹
37                      U46C C71A        8.19e-05 s⁻¹
